Data origin: patent US20250171462A1

molecular target: full-length SARM1 (FL-SARM1) (Homo sapiens); assay: FL-SARM1 cellular lysate assay (NAD/NADH-Glo detection of remaining NAD+, NMN-activated); settings: Activity (IC50 class), 11 point curve
Sequence (Q6SZW1 28-724): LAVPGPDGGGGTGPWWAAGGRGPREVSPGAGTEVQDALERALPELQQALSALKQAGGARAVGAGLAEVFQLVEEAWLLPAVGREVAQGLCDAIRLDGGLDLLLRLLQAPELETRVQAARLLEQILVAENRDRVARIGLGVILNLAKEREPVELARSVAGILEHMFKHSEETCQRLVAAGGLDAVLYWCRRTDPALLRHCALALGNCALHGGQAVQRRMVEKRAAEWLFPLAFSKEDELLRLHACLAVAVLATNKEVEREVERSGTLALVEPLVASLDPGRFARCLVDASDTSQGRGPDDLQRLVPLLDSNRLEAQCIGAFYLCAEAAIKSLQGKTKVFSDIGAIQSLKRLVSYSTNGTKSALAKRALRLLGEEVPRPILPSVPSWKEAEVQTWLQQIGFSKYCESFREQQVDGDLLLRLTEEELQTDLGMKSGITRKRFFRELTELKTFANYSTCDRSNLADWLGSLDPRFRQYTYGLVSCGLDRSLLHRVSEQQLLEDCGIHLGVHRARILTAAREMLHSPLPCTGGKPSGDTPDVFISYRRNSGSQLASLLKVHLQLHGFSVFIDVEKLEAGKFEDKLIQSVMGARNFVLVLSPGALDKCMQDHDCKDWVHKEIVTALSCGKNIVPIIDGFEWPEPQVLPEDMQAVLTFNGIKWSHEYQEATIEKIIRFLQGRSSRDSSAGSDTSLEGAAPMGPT
Readout Label: IC50

Query: Request - read-out IC50 | tested on full-length SARM1 (FL-SARM1) (Homo sapiens) | compound Cc1ccc(NC(=O)C(C)C(F)(F)F)cc1-c1ncccn1 (racemic)
Response: > 10 µM

Query: Would you kindly repeat that for CCOC(C)[C@@]12CC(C[C@@H](C)C1)N2C(=O)Nc1ccc(C)c(-c2ncc(F)cn2)c1 (single isomer, unassigned) ?
Response: 1 to 10 µM

Query: Would you kindly repeat that for Cc1cc(F)c(NC(=O)N2CC3CC2c2ccccc23)cc1-c1cccnn1 (single isomer, unassigned) ?
Response: 1 to 10 µM

Query: Would you kindly repeat that for Cc1ccc(NC(=O)C(C)(C)C)cc1-c1ccccn1 ?
Response: > 10 µM

Query: Would you kindly repeat that for Cc1ccc(NC(=O)C2CCc3cccnc32)cc1-c1ncc(F)cn1 (racemic) ?
Response: > 10 µM

Query: Would you kindly repeat that for Cc1ccc(NC(=O)N2CC3CC3(c3ccccc3)C2)cc1-c1ccccn1 (centres unmarked) ?
Response: > 10 µM

Query: Would you kindly repeat that for Cc1ccc(NC(=O)[C@@H]2CN(CC(F)(F)F)C[C@H]2c2ccccn2)cc1-c1ncc(F)cn1 (racemic) ?
Response: > 10 µM

Query: Would you kindly repeat that for Cc1cc(F)cnc1-c1cccc(NC(=O)N2C3CCCC2C3)c1 ?
Response: 1 to 10 µM
